# assay.text: Parent chemical in rat plasma, 90-day study
# Assay type: in vivo
# details: Sprague-Dawley, rat, plasma, oral; male, Day 91, 200 mg/kg-day
value.type: concentration at 91 day (ng/mL)
Note: unit ng/mL is implicit; provide only the numeric part.

query: If you can, please state the reported concentration at 91 day value of FC(F)(F)C(F)(F)C(F)(F)C(F)(F)CCI [PFHI, 1H,1H,2H,2H-Perfluorohexyl iodide] .
result: 52.4

---

# assay.text: Parent chemical in rat plasma, 14-day study
# Format: in vivo
# details: Sprague-Dawley, rat, plasma, oral; male, Day 15, 30 mg/kg-day
value.type: concentration at 15 day

query: If you can, please state the reported concentration at 15 day value of O=C(O)C(F)(Cl)C(F)(F)F (stereo not shown) .
result: 49800 ng/mL
